# Method description: viability loss in pontine glioma line – cell-based, SU-DIPG-XVII, MIPE5.0, CellTiter-Glo, qHTS, dose response (AID 1347060);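 as to AC50: cells exposed to compound for 48 hours before viability readout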
# Condition info: CellTiter-Glo ATP luminescence
Inconclusive results are not listed. Activity calls are given as the source filed them. The limit is not given here; nearly all actives have AC50 up to about 26 µM.
Outcome field: choose from True (active), False (inactive)

Molecule: CC(=O)[C@]1(O)Cc2c(O)c3c(c(O)c2[C@@H](O[C@H]2C[C@H](N)[C@H](O)[C@H](C)O2)C1)C(=O)c1ccccc1C3=O
Qualitative label: True

Molecule: Nc1nc(N)nc(-c2cc(Cl)ccc2Cl)n1
Qualitative label: False

Molecule: Cn1nnc2c(C(N)=O)ncn2c1=O
Qualitative label: False

Molecule: CCN(CC)CCOc1ccc(/C(=C(\Cl)c2ccccc2)c2ccccc2)cc1
Qualitative label: True

Molecule: O=C(O)CCNC(=O)c1ccc(N=Nc2ccc(O)c(C(=O)O)c2)cc1
Qualitative label: False

Molecule: C[C@@H]1CN(c2c(F)c(N)c3c(=O)c(C(=O)O)cn(C4CC4)c3c2F)C[C@H](C)N1
Qualitative label: False

Molecule: CC1=NN(c2ccccc2)C(=O)C1
Qualitative label: False

Molecule: Clc1ccc2nsnc2c1NC1=NCCN1
Qualitative label: False

Molecule: Cc1cc(C(C)(C)C)c(O)c(C)c1CC1=NCCN1
Qualitative label: False

Molecule: COC(=O)[C@@H]1[C@H]2C[C@H]3c4[nH]c5ccccc5c4CCN3C[C@@H]2CC[C@@H]1O
Qualitative label: False

[in] Any idea what this test logged for COC(=O)Nc1nc2ccc(Sc3ccccc3)cc2[nH]1 ?
[out] True

[in] Any idea what this test logged for CC(=O)Oc1ccccc1C(=O)O ?
[out] False

[in] Any idea what this test logged for NC(=O)NO ?
[out] False

[in] Any idea what this test logged for Oc1ccc(OCc2ccccc2)cc1 ?
[out] False

[in] Any idea what this test logged for Cc1cc2c(C(C)C)c(O)c(O)c(C=O)c2c(O)c1-c1c(C)cc2c(C(C)C)c(O)c(O)c(C=O)c2c1O ?
[out] True

[in] Any idea what this test logged for Cc1cnc(C(=O)O)c[n+]1[O-] ?
[out] False

[in] Any idea what this test logged for O=c1oc2c(O)c(O)cc3c(=O)oc4c(O)c(O)cc1c4c23 ?
[out] False

[in] Any idea what this test logged for Cc1ccc(S(=O)(=O)NC(=O)NN2CC3CCCC3C2)cc1 (stereo not given) ?
[out] False

[in] Any idea what this test logged for CO[C@@H]1[C@@H](OC(N)=O)[C@@H](O)[C@H](Oc2ccc3c(O)c(NC(=O)c4ccc(O)c(CC=C(C)C)c4)c(=O)oc3c2C)OC1(C)C ?
[out] False

[in] Any idea what this test logged for COc1ccc2[nH]cc(CCNC(C)=O)c2c1 ?
[out] False
